target_or_system: human vasopressin V1a receptor (Homo sapiens, UniProt P37288)
Sequence (P37288 whole entry): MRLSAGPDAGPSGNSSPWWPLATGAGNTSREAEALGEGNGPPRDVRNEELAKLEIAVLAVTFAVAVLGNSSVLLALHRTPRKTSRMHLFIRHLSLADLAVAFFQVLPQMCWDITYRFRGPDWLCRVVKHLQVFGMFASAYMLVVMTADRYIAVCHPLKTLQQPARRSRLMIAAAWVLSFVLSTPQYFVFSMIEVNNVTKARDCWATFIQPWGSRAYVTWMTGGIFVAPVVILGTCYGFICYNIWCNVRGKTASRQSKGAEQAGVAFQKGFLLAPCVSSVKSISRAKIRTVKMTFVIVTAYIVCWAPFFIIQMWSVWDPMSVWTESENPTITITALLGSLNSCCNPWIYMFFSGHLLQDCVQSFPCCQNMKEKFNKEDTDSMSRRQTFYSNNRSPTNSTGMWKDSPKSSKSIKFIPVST
protocol_details: Human vasopressin V1a receptor binding assay
assay_context: 1321N1 cell membranes, [3H]vasopressin; read-out: Ki (nM) on hV1a cell line
measure_name: Ki (nM)

1. CO[C@H]1Cc2cc(Cl)ccc2-n2c(nnc2[C@H]2CC[C@H](Oc3ccccn3)CC2)C1 (single isomer, unassigned) [Example 103]: 0.2
2. CN(C)S(=O)(=O)NC1Cc2cc(Cl)ccc2-n2c(nnc2[C@H]2CC[C@H](Oc3ccccn3)CC2)C1 (stereo partly shown) [Example 20]: 0.7
3. CC(C)(C)[Si](C)(C)OC1Cc2cc(Cl)ccc2-n2c(nnc2[C@H]2CC[C@H](Oc3ccccn3)CC2)C1 (stereo partly shown) [Example 52]: 11
4. OC1Cc2cc(Cl)ccc2-n2c(nnc2[C@H]2CC[C@H](C(F)(F)F)CC2)C1 (stereo partly shown) [Example 72]: 7.5
5. O=C(N[C@@H]1Cc2cc(Cl)ccc2-n2c(nnc2[C@H]2CC[C@H](Oc3ccccn3)CC2)C1)C(F)(F)F [Example 217]: 0.3
6. CCO[C@]1(C)CC[C@@H](c2nnc3n2-c2ccc(Cl)cc2CC2(C3)OCCO2)CC1 [Example 237]: 0.2
7. CS(=O)(=O)NC1Cc2cc(Cl)ccc2-n2c(nnc2[C@H]2CC[C@H](Oc3ccccn3)CC2)C1 (stereo partly shown) [Example 18]: 0.5

---

# maps each entry to its pKi
target_or_system: human vasopressin V2 receptor (Homo sapiens, UniProt P30518)
Sequence (P30518 whole entry): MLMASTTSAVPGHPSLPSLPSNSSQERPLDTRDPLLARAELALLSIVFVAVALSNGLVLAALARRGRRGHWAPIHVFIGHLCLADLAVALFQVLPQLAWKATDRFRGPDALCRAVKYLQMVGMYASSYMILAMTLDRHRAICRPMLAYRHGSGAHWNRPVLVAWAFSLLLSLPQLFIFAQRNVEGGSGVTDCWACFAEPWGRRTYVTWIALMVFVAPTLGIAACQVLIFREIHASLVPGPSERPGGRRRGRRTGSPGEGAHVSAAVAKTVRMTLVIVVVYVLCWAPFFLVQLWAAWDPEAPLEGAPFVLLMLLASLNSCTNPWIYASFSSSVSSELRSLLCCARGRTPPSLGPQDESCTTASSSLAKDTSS
pKi: −log10 of the molar value.
measure_name: pKi

1. OC1Cc2cc(Cl)ccc2-n2c(nnc2[C@H]2CC[C@H](Oc3ccccn3)CC2)C1 (some centres unmarked): 6.33
2. O[C@@H]1Cc2cc(Cl)ccc2-n2c(nnc2[C@H]2CC[C@H](Oc3ccccn3)CC2)C1: 6.35
3. CC(=O)NC1Cc2cc(Cl)ccc2-n2c(nnc2[C@H]2CC[C@H](Oc3ccccn3)CC2)C1 (some centres unmarked): 5.92
4. c1ccc(O[C@H]2CC[C@H](c3nnc4n3-c3ccccc3CC3(C4)OCCO3)CC2)nc1: 6.24
5. CN(C)S(=O)(=O)NC1Cc2cc(Cl)ccc2-n2c(nnc2[C@H]2CC[C@H](Oc3ccccn3)CC2)C1 (some centres unmarked): 6.44

---

target_or_system: human vasopressin V1a receptor (Homo sapiens)
protocol_details: Human vasopressin V1a receptor binding assay
assay_context: 1321N1 cell membranes, [3H]vasopressin; read-out: Ki (nM) on hV1a cell line
Description: Human Vasopressin V1a Receptor Binding Assay Cells were suspended in preparative buffer (50 mM Tris, 1 mM EDTA, 0.1 mM PMSF) and homogenized with glass homogenizing potter. […] Non-specific binding values were determined in the presence of unlabeled 1.2×10^−6 M (Arg^8)-vasopressin. […] Finally, radioactivity was measured using MicroBeta^2 Microplate Counter (Perkin Elmer). During fitting, the asymptotes are not fixed. […] The KD is determined beforehand using the Scatchard curve.
measure_name: Ki (nM)

1. CN(C)CCC(=O)N[C@@H]1Cc2cc(Cl)ccc2-n2c(nnc2[C@H]2CC[C@H](Oc3ccccn3)CC2)C1: 0.2
2. Fc1ccc2c(c1)CC1(Cc3nnc([C@H]4CC[C@H](Oc5ccccn5)CC4)n3-2)OCCO1: 0.2
3. COC1Cc2cc(C(F)(F)F)ccc2-n2c(nnc2[C@H]2CC[C@H](Oc3ccccn3)CC2)C1 (stereo partly shown): 2.7
4. NCC(=O)NC1Cc2cc(Cl)ccc2-n2c(nnc2[C@H]2CC[C@H](Oc3ccccn3)CC2)C1 (stereo partly shown): 1.8
5. O=C(OC1Cc2cc(Cl)ccc2-n2c(nnc2[C@H]2CC[C@H](Oc3ccccn3)CC2)C1)C1CCC(F)(F)CC1 (stereo partly shown): 2.8
6. O=C(N[C@H]1Cc2cc(Cl)ccc2-n2c(nnc2[C@H]2CC[C@H](Oc3ccccn3)CC2)C1)C1CCC1: 79
7. N#Cc1ccc2c(c1)CC1(Cc3nnc([C@H]4CC[C@H](C(F)(F)F)CC4)n3-2)OCCO1: 11.4

Provenance of the data: patent US11298363B2
